- ASSAY_NOTES: chemical genetic growth profiling, strain panel (AID 1159580);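 note: tested at 20 µM; growth read once vehicle control cultures reached saturation at 30 °C; 1 = growth at the plate median or of vehicle wells; lower values mean less growth of the strain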
- CONDITION_CONTEXT: S. cerevisiae deletion strains, growth OD, locus YJR043C, strain POL32, hits give low values
The whole screen tested about 5,500 compounds, of which about 2,000 (36%) were called active. Not shown: some 18% with an inconclusive outcome. Some of the results follow.
Listed below: normalized growth values for each entry.
The answer should be a number; do not append a unit.

MOLECULE	normalized growth
COc1ccc(Cc2nccc3cc(OC)c(OC)cc23)cc1OC	1.01
CSC(=Nc1ccc(C(C)C)cc1)NC#N	0.982
CC(C)(O)CC[C@@H](O)[C@](C)(O)C1CC[C@@]2(O)C3=CC(=O)C4C[C@@H](O)[C@@H](O)C[C@]4(C)C3CC[C@]12C (stereo partly specified)	1.02
CC(=O)OC1CCC23C(=O)OC45CCC(C6=CC(=O)OC6)C4(C)CCC2C5CCC3(O)C1 (stereo unspecified)	1.05

*Q* Hello, please tell me recorded normalized growth for this one: O=c1c(-c2ccc3c(c2)OCO3)coc2cc(O)ccc12
*A* 1

*Q* Hello, please tell me recorded normalized growth for this one: C[C@]12CCC3c4ccc(O)cc4CCC3C1CC[C@@H]2OC(=O)CCC1CCCC1 (stereo partly specified)
*A* 0.967

*Q* Hello, please tell me recorded normalized growth for this one: CC(=O)N[C@@H](CC(=O)O)C(=O)O
*A* 1.01

*Q* Hello, please tell me recorded normalized growth for this one: CCCCC(=O)N(Cc1ccc(-c2ccccc2-c2nn[nH]n2)cc1)[C@H](C(=O)O)C(C)C
*A* 0.979

*Q* Hello, please tell me recorded normalized growth for this one: Cc1c(N(C)CS(=O)(=O)O)c(=O)n(-c2ccccc2)n1C
*A* 1

*Q* Hello, please tell me recorded normalized growth for this one: COC(=O)c1ccccc1-n1cccc1C(=O)OC
*A* 0.993

*Q* Hello, please tell me recorded normalized growth for this one: COc1ccc(/C(C)=N\NC2=NCCCN2)cc1
*A* 0.998

*Q* Hello, please tell me recorded normalized growth for this one: Cn1nnnc1SCC1=C(C(=O)O)N2C(=O)C(NC(=O)C(OC=O)c3ccccc3)C2SC1 (stereo unspecified)
*A* 1.01

Numbers sourced from PubChem BioAssay AID1159580.
